Quick list: clearance per entry.
test: Pharmacokinetics in rats after intravenous and oral administration; type: in vivo, Sprague-Dawley rats; settings: male, Sprague-Dawley, rat, plasma, iv, 5 mg/kg
Quick reminder: number only, in mL/min/kg, skip the unit.

C[C@@H]1CC[C@H]2[C@@H](C)C(=O)O[C@@H]3O[C@@]4(C)CC[C@@H]1[C@]32OO4 = 674

Could you now consider this next molecule?
clearance lookup needed for C[C@@H]1CC[C@H]2[C@@H](C)C(=O)O[C@@H]3O[C@@]4(C)CC[C@@H]1[C@]32O4 , thanks.
385

###

Recorded Cmax values for a group of molecules are listed next.
assay: Pharmacokinetics in rats after intravenous and oral administration; type: in vivo, Sprague-Dawley rats; conditions: male, Sprague-Dawley, rat, plasma, po, 100 mg/kg
Give a bare numeral; the unit ng/mL is implied.

C[C@@H]1CC[C@H]2[C@@H](C)C(=O)O[C@@H]3O[C@@]4(C)CC[C@@H]1[C@]32OO4 = 65.1

Here is another molecule to look at.
What value of measured Cmax is listed for C[C@@H]1CC[C@H]2[C@@H](C)C(=O)O[C@@H]3O[C@@]4(C)CC[C@@H]1[C@]32O4 ?
62.4

###

The reader will find reported Vd values listed item by item below.
assay: Pharmacokinetics in rats after intravenous and oral administration; type: in vivo, Sprague-Dawley rats; conditions: male, Sprague-Dawley, rat, plasma, iv, 5 mg/kg
Report as a plain number; the unit L/kg is understood.

C[C@@H]1CC[C@H]2[C@@H](C)C(=O)O[C@@H]3O[C@@]4(C)CC[C@@H]1[C@]32OO4 = 45.1

API: the following record is the query input.
# Vd lookup, item C[C@@H]1CC[C@H]2[C@@H](C)C(=O)O[C@@H]3O[C@@]4(C)CC[C@@H]1[C@]32O4
48.3

###

assay: Pharmacokinetics in rats after intravenous and oral administration; type: in vivo, Sprague-Dawley rats; settings: male, Sprague-Dawley, rat, plasma, po, 100 mg/kg, t1/2, rat, p.o. 100 mg/kg, n = 3
readout_type: half-life (min)
Just the number in min, nothing appended.

C[C@@H]1CC[C@H]2[C@@H](C)C(=O)O[C@@H]3O[C@@]4(C)CC[C@@H]1[C@]32O4 [deoxyartemisinin, Deoxyartemisinin] = 67.2

What measured half-life goes with C[C@@H]1CC[C@H]2[C@@H](C)C(=O)O[C@@H]3O[C@@]4(C)CC[C@@H]1[C@]32OO4 [artemisinin, Artemisinin] ?
133

Cited source: paper PMC7808142
